Taken from patent US20200339511A1.

system: DENV-4 strain H241; test: Tetravalent RT-qPCR assay, serotype 4; assay type: cell-based, Dengue virus; conditions: Dengue virus, DENV4, Vero, 72 h, RT-qPCR serotype 4 H241, Protocol A, Vero cells, day 3
valueKind: EC50 (nM)
Number only, in nM; omit the unit.

Prompt line: Consider the molecule shown here: COc1cc(NC(C(=O)N2CCc3cc(OC)c(OC(F)(F)F)cc32)c2ccc(Cl)cc2)cc(OCCO)c1 (single isomer, unassigned) [Compound 13A] What is its recorded EC50?
Response line: 270

###

pEC50 overview
system: DENV-2 strain 16681; assay: Tetravalent RT-qPCR assay, serotype 2; assay type: cell-based, Dengue virus; conditions: Dengue virus, DENV2, Vero, 72 h, RT-qPCR serotype 2 16681, Protocol A, Vero cells, day 3
Friendly reminder that pEC50 comes from taking -log10 of the concentration in mol/L.

Take a look at these entries with their results.
>  <molecule>
COc1cc(NC(C(=O)N2CCc3ccc(OC(F)(F)F)cc32)c2ccc(Cl)cc2F)cc(OCCO)c1 (single isomer, unassigned)

>  <reportedValue>
8.70

$$$$
>  <molecule>
COc1cc(NC(C(=O)N2CCc3c(C)cc(C(F)(F)F)cc32)c2ccc(Cl)cc2)cc(OCCO)c1 (single isomer, unassigned) [Compound 10B]

>  <reportedValue>
8.64

$$$$
>  <molecule>
COc1cc(NC(C(=O)N2CCc3c(C)cc(OC(F)(F)F)cc32)c2ccc(Cl)cc2)cc(OCCO)c1 (single isomer, unassigned)

>  <reportedValue>
8.92

$$$$
>  <molecule>
COc1cc(NC(C(=O)N2CCc3ccc(OC(F)(F)F)cc32)c2ccc(Cl)cc2)cc(OCCO)c1 (single isomer, unassigned)

>  <reportedValue>
8.66

$$$$
>  <molecule>
COc1cc(NC(C(=O)N2CCc3cc(OC)c(OC(F)(F)F)cc32)c2ccc(Cl)cc2)cc(OCCO)c1 (single isomer, unassigned) [Compound 13A]

>  <reportedValue>
8.82

$$$$

Prompt line: Name the recorded pEC50 for COc1cc(NC(C(=O)N2CCc3cc(OC)c(C(F)(F)F)cc32)c2ccc(Cl)cc2)cc(OCCO)c1 (single isomer, unassigned) .
Response line: 9.02

###

tested on: DENV-4 strain H241; test: Tetravalent RT-qPCR assay, serotype 4; type: cell-based, Dengue virus; conditions: Dengue virus, DENV4, Vero, 72 h, RT-qPCR serotype 4 H241, Protocol A, Vero cells, day 3; read-out: EC50
Catalogue of pEC50 readings, one per entry.
In plain terms, pEC50 is the concentration in mol/L turned into minus its base-10 logarithm.

>  <molecule>
COc1cc(NC(C(=O)N2CCc3cc(F)c(C(F)(F)F)cc32)c2ccc(Cl)cc2)cc(OCCO)c1 (single isomer, unassigned) [Compound 12A]

>  <experimentalSystem>
DENV-4 strain H241

>  <pEC50>
6.62

$$$$
>  <molecule>
COc1cc(NC(C(=O)N2CCc3ccc(C(F)(F)F)cc32)c2ccc(Cl)cc2F)cc(OCCO)c1 (single isomer, unassigned) [Compound 2B]

>  <experimentalSystem>
DENV-4 strain H241

>  <pEC50>
6.77

$$$$
>  <molecule>
COc1cc(NC(C(=O)N2CCc3ccc(C(F)(F)F)cc32)c2ccc(Cl)cc2OC)cc(OCCO)c1 (single isomer, unassigned) [Compound 1B]

>  <experimentalSystem>
DENV-4 strain H241

>  <pEC50>
6.60

$$$$
>  <molecule>
COc1cc(NC(C(=O)N2CCc3ccc(OC(F)(F)F)cc32)c2ccc(Cl)cc2OC)cc(OCCO)c1 (single isomer, unassigned) [Compound 5A]

>  <experimentalSystem>
DENV-4 strain H241

>  <pEC50>
6.68

$$$$
>  <molecule>
COc1cc(NC(C(=O)N2CCc3ccc(OC(F)(F)F)cc32)c2ccc(Cl)cc2)cc(OCCO)c1 (single isomer, unassigned) [Compound 3A]

>  <experimentalSystem>
DENV-4 strain H241

>  <pEC50>
6.72

$$$$
>  <molecule>
COc1cc(NC(C(=O)N2CCc3c(C)cc(OC(F)(F)F)cc32)c2ccc(Cl)cc2)cc(OCCO)c1 (single isomer, unassigned) [Compound 9B]

>  <experimentalSystem>
DENV-4 strain H241

>  <pEC50>
6.96

$$$$
>  <molecule>
COc1cc(NC(C(=O)N2CCc3cc(OC)c(C(F)(F)F)cc32)c2ccc(Cl)cc2F)cc(OCCO)c1 (single isomer, unassigned) [Compound 8B]

>  <experimentalSystem>
DENV-4 strain H241

>  <pEC50>
6.92

$$$$
>  <molecule>
COc1cc(NC(C(=O)N2CCc3cc(OC)c(C(F)(F)F)cc32)c2ccc(Cl)cc2OC)cc(OCCO)c1 (single isomer, unassigned) [Compound 11B]

>  <experimentalSystem>
DENV-4 strain H241

>  <pEC50>
6.55

$$$$

Prompt line: Lookup: pEC50 / DENV-4 strain H241 / COc1cc(NC(C(=O)N2CCc3ccc(OC(F)(F)F)cc32)c2ccc(Cl)cc2F)cc(OCCO)c1 (single isomer, unassigned) [Compound 6B]
Response line: 6.85

Prompt line: Notebook: pull reported pEC50 for DENV-4 strain H241, entry COc1cc(NC(C(=O)N2CCc3c(C)cc(C(F)(F)F)cc32)c2ccc(Cl)cc2)cc(OCCO)c1 (single isomer, unassigned) [Compound 10B]
Response line: 6.80

Prompt line: Missing value: pEC50, DENV-4 strain H241, entry COc1cc(NC(C(=O)N2CCc3cc(OC)c(C(F)(F)F)cc32)c2ccc(Cl)cc2)cc(OCCO)c1 (single isomer, unassigned) [Compound 7B] . Fill in?
Response line: 6.92
